assay: solvent given as SMILES; details: in ClCCl
Catalogue of absorption maximum values
Please give a number only; it is taken to be in nm.

CC(C)(C)c1ccc2c3c(c4ccc(C(C)(C)C)cc4c2c1)=[N+]1C(=C(c2ccccc2)c2c(Br)c4c5ccc(C(C)(C)C)cc5c5cc(C(C)(C)C)ccc5c4n2[B-]1(F)F)C=3Br	689

Query :: So what's the measured absorption maximum for this one? "COc1cc(OC)cc(C2=C3C(C)=C(I)C(C)=[N+]3[B-](F)(F)n3c(/C=C/c4c[nH]c5ccc([N+](=O)[O-])cc45)c(I)c(C)c32)c1"
Result :: 606

Query :: Entry to check: "c1ccc(C(=C(c2ccccc2)c2ccc(-c3ccc(-c4nc5c(-c6ccc(-c7ccc(C(=C(c8ccccc8)c8ccccc8)c8ccccc8)cc7)cc6)sc(-c6ccc(-c7ccc(C(=C(c8ccccc8)c8ccccc8)c8ccccc8)cc7)cc6)c5nc4-c4ccc(-c5ccc(C(=C(c6ccccc6)c6ccccc6)c6ccccc6)cc5)cc4)cc3)cc2)c2ccccc2)cc1"
Result :: 520

Query :: Here is the next compound: CCCCC(CC)COc1cc(OCC(CC)CCCC)c2c#cc3ccc4oc5ccc(c#cc6cc(c#cc7ccc8oc9ccc(c#cc1c2)cc9c8c7)c(C(CCCC)OCCC)cc6C(CCCC)OCCC)cc5c4c3 (configuration not stated)
Result :: 328

---

assay: solvent given as SMILES; conditions: in CO
quantityName: absorption maximum (nm)
Number in nm, nothing else.

CN(C)c1ccc(-c2nc3c(c4c2-c2ccc(C#N)cc2CC4)-c2ccc(C#N)cc2CC3)cc1	332
c1ccc2cc3cc(-c4cc(-c5nccs5)nc(-c5nccs5)c4)ccc3cc2c1	356

Query :: Would you kindly share the measured absorption maximum for "c1ccc(-c2nc3c(c4c2-c2ccccc2CC4)-c2ccccc2CC3)cc1" ?
Result :: 318

Query :: Would you kindly repeat that for "O=[N+]([O-])c1ccco1" ?
Result :: 302

Query :: And the next one, CC(C)(C)C1Nc2ccccc2C(=O)N1c1ccccc1 (stereo unspecified) ?
Result :: 356

Query :: What do we get for "O=C1c2ccccc2-c2ccc(Nc3nc(Cl)nc(Cl)n3)c3cccc1c23" ?
Result :: 410

Query :: "Nc1ccc2c3c(cccc13)C(=O)c1ccccc1-2" ?
Result :: 514.14

Query :: Can you handle "C(/C=C/c1cc2c3c(c1)CCCN3CCC2)=C\c1ccncc1" next?
Result :: 419

Query :: # iterate: "Fc1ccc(-c2nc3n(c2-c2ccncc2)CCS3)cc1"
Result :: 322.5

Query :: Next up: "COCCOc1cc(C=O)c(OCCOC)cc1C=O"
Result :: 353

Query :: Let us now turn to "C(=C\c1nc2ccccc2[nH]1)/c1ccc(-c2nc3c4cccnc4c4ncccc4c3[nH]2)cc1"
Result :: 375

---

experiment: solvent given as SMILES; conditions: in ClCCl
quantityName: absorption maximum (nm)
Return type: number; implicit unit nm.

Query :: # query: absorption maximum of entry "CC(=O)O[B-]1(OC(C)=O)OC(/C=C/c2ccccc2)=CC(/C=C/c2ccccc2)=[O+]1"
Result :: 424

Query :: Next entry: "CCOc1cc2c(cc1/C=C/C1=CC(=C(C#N)C#N)CC(C)(C)C1)c1ccccc1n2CC"
Result :: 479

Query :: Quick one: O=P1(c2ccccc2)c2ccccc2-n2cccc21 (stereo unspecified)
Result :: 290

---

experiment: solvent given as SMILES; conditions: in O
// boundary case: absorption maximum equal to 400 nm maps to NO; strictly smaller maps to YES

Oc1cc(-c2ccco2)ccc1-c1nc2ccccc2s1	YES
CCCN1/C(=C/C=C/C=C/C2=[N+](CCC)c3ccccc3C2(C)C)C(C)(C)c2ccccc21	NO
Nc1cccc2ncccc12	YES
CCCCCCc1ccsc1-c1ccc(-c2sc(C(=O)O)cc2CCCCCC)s1	YES
COc1cc(/C=C2/SC(=O)NC2=O)cc(OC)c1O	YES

Kindly review the next compound as well.
Query :: Field: below-cutoff. Rule: recorded absorption maximum strictly less than 400 nm. Subject: "COc1ccc(C(=O)/C=C2\C(=O)Nc3ccccc32)cc1"
Result :: YES

---

test: solvent given as SMILES; settings: in CCO
quantityName: absorption maximum (nm)
Please respond with the number in nm and leave the unit unwritten.

Known absorption maximum results, listed for orientation:
CC(C)[Si]1(C(C)C)c2cc(C=C(C#N)C#N)ccc2-c2ccc(N(C)C)cc21	478
O=C1NC(=O)c2c1c1c3ccccc3[nH]c1c1[nH]c3ccccc3c21	405
CN(C)CCNCc1c2ccccc2cc2ccccc12	366

Query :: Sample "CN1/C(=C/C=C(/C=C/C2=[N+](C)c3ccccc3C2(C)C)c2ccccc2)C(C)(C)c2ccccc21" — what was its absorption maximum?
Result :: 640

Query :: Try "N#CC(C#N)=Cc1cn(-c2ccccc2)nc1-c1ccccc1" next.
Result :: 354

Query :: Now the same for "Cc1c(COC(=O)c2ccc(I)cc2)n2c(OCC(=O)c3ccc(I)cc3)c(C)c(=O)n2c1=O"
Result :: 387

Query :: Next compound: CCCCC(CC)Cn1c2ccc(C(=C(C#N)C#N)c3ccccc3)cc2c2c(-c3ccc(Br)cc3)c3c(c(-c4ccc(Br)cc4)c21)c1cc(C(=C(C#N)C#N)c2ccccc2)ccc1n3CC(CC)CCCC (configuration not stated)
Result :: 464

Query :: // repeat for "CC1=[N+]2C(=C(c3c4ccccc4c(C)c4ccccc34)c3ccc(C)n3[B-]2(F)F)C=C1" and report
Result :: 515

Query :: Moving on to COC(=O)C(NC(=O)CCNc1cccc2ccccc12)C(C)C (configuration not stated)
Result :: 330

Query :: # iterate: "O=CN1N=C(c2ccc(Br)cc2)C[C@@H]1c1ccccc1"
Result :: 297

Query :: Would you mind doing "Nc1cc2nc3cc(F)c(F)cc3nc2cc1N" as well?
Result :: 433

Query :: And then "Cc1cc(O)c(C(C)C)cc1/N=C/c1ccc(O)cc1" , what is it?
Result :: 340

Query :: Thanks! And C1=C(c2ccc(-c3cccs3)s2)CCC(c2ccccc2)C1 (configuration not stated) ?
Result :: 341

Query :: And for "CC1=C(C(C)(C)C)C(C)=[N+]2C1=C(C)c1c(C)c(C(C)(C)C)c(C)n1[B-]2(F)F" ?
Result :: 524.3

Query :: Thanks! And CC1CC=C(c2ccc(-c3cccs3)s2)CC1 (configuration not stated) ?
Result :: 336

Query :: Query "CN1c2cc3nc4cc(Br)c(Br)cc4nc3cc2N(C)C1(C)C" next
Result :: 473

Query :: And the next one, "CN(C)c1ccc(/C=C2\CC/C(=C\c3ccc(C#N)cc3)C2=O)cc1" ?
Result :: 472

Query :: Also "CC(C)(C)c1ccc2oc(-c3ccc(-c4nc5cc(C(C)(C)C)ccc5o4)s3)nc2c1" ?
Result :: 373

Query :: What would you report for "CC(=O)c1nc(-c2ccc(C)cc2)oc1C" ?
Result :: 271

---

assay: solvent given as SMILES; conditions: in CC#N
# absorption maximum per record follows
Provide the reading as a plain figure in nm.

Solved entries (count: 8):
C1=C(c2ccc(-c3cccs3)s2)CCC1	342
CC(=O)Nc1ccc(O)cc1	290
CCN(CC)c1ccc2cc(/C=C/C(O)=C/C(C)=O)c(=O)oc2c1	456
CCNc1cc2oc(=O)cc(C(F)(F)F)c2cc1C	383
C=CC(=O)Oc1ccc2cc(C=C)c(=O)oc2c1	320
O=CN1N=C(c2ccc(Br)cc2)C[C@@H]1c1ccccc1	298
O=c1c2cc(Br)ccc2nc2n1[B-](F)(F)[n+]1ccccc1-2	343
Cc1ccc(C(=O)NN2C3=C(CC4=C2CCCC4=O)C(=O)CCC3)cc1	368

# next compound below
Query :: Fill in: absorption maximum of "O=C1Cc2ccc(cc2)CC(=O)Cc2ccc(c3nsnc23)C1" is ___
Result :: 382

---

test: solvent given as SMILES; details: in C1CCOC1
quantityName: absorption maximum (nm)
Just the number please, in nm, no unit attached.

Example cases with answers are listed next.
c1ccc(N(c2ccccc2)c2ccc3c4cccc5c(N(c6ccccc6)c6ccccc6)ccc(c6cccc2c63)c54)cc1	489
COc1cc2c(cc1-c1ccc(C=O)cc1)Cc1c3c(c4c(c1-2)-c1cc(OC)c(-c2ccc(C=O)cc2)cc1C4)C(=O)N(CCC(C)C)C3=O	414
O=S(=O)([O-])c1ccccc1/C=C/c1ccc(-c2nnc(-c3ccc(/C=C/c4ccccc4S(=O)(=O)[O-])cc3)o2)cc1	346

Query :: Requested field: absorption maximum. Item: "F[B-]1(F)n2c(-c3ccccc3)cc(-c3ccccc3)c2C(c2ccccc2)=C2C(c3ccccc3)=CC(c3ccccc3)=[N+]21"
Result :: 561

Query :: Note, next up: "CN(C)c1ccc(/C=C/c2cc[n+](C)cc2)cc1"
Result :: 483

Reference source: the Deep4Chem optical property database
